Attribution: patent US20180105596A1

Target Under Test: T1, cynomolgus Tyro3 ECD, His-Strep tagged
T1 construct: also called cyno TYRO3 ECD 8hisstrep
T1 extracellular domain: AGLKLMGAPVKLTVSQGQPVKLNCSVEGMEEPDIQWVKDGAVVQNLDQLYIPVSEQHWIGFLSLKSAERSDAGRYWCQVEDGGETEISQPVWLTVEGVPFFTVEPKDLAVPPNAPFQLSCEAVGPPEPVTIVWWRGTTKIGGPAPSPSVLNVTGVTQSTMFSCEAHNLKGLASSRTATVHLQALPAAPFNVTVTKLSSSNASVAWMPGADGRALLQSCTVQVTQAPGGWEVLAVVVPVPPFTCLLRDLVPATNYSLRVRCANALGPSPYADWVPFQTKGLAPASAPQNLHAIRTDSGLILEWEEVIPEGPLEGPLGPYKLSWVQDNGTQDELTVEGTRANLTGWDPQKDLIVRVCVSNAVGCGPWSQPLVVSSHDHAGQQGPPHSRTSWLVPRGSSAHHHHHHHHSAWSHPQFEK
Experiment: sandwich ELISA, Strep-tagged cynomolgus Tyro3 ECD captured on StrepMAB plate, IgG 3-fold from 3 µg/mL, anti-human IgG1-HRP
Readout Name: binding result

IgG2415 (antibody, V domains shown, also called IGX2415) VH: EVQLVQSGADVKKPGASLTISCQASGYTFTDYWISWVRQKPGKGLEWMGQIRGPASATHYGPSFQGHVTISADRSTATAYLQWRSLEASDTAMYYCVRHQQQTSGGTIPEYYQHWGPGTLVTVSS VL: SYELTQPPSVSVSPGQTARITCSGDALPKKYAYWYQQKSGQAPVLVIYEDKKRISGIPERFSGSSSGTMATLTISGAQVEDEADYYCYSTSTGGNYMVFGGGTKLTVL :: binds
